target.entity: Yer184c (UniProt P39961)
Sequence: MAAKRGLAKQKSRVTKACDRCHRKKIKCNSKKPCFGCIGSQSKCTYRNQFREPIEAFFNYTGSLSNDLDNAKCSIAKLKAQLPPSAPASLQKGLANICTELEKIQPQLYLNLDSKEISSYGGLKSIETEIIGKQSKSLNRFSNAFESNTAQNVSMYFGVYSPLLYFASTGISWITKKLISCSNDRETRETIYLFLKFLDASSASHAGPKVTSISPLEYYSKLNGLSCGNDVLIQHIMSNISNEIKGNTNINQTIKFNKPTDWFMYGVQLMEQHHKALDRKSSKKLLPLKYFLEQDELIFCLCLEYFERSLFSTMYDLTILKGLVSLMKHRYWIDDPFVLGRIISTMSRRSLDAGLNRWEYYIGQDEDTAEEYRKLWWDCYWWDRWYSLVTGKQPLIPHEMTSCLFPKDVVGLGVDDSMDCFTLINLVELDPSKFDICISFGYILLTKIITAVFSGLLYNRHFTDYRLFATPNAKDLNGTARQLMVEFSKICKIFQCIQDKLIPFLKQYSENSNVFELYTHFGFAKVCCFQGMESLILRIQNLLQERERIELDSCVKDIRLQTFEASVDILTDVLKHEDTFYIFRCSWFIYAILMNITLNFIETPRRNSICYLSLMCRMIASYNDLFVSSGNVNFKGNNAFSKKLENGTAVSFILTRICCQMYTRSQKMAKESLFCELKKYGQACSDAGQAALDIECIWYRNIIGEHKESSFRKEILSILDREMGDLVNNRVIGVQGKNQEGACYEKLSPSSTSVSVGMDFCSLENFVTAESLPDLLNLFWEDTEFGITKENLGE
assay.remarks: PBM E-score (8-mer binding enrichment) (E-score (-0.5 to 0.5)); higher = stronger / more preferred TF binding
condition.parameters: protein concentration: 100 nM; construct: GST-full length
In all, about 33,000 sequences were measured (“E-score (-0.5 to 0.5)”: median about -0.016, highest 2% from about 0.3 on). This is one part of a sample in which the highest values are shown more often than they occur.
Classify as follows. Reported PBM E-score greater than or equal to 0.02: Y. Reported PBM E-score below: N.

### Prompt Could you tell me if the measured PBM E-score of "CGGTGCGA" reaches 0.02 or more?
### Response N

### Prompt Next sequence up: "GAAGTACA"
### Response Y

### Prompt And "ACACTGGA" ?
### Response Y

### Prompt What would you report for "CCTAAAAA" ?
### Response Y

### Prompt Next: "CTAGAAAG"
### Response N

### Prompt Same lookup for "GCCCGTGA" , please.
### Response N

### Prompt Also "CGCGGCCC" , if possible.
### Response Y

### Prompt Quick one: "CGGAACGA"
### Response Y

### Prompt Likewise for "ATCGGTCC" ?
### Response Y

### Prompt How about "CCCGCGGC" ?
### Response Y

### Prompt Moving on to "GAGTCAGC"
### Response N

### Prompt Can you handle "AGTCCAGG" next?
### Response N

### Prompt Let us now turn to "CGGCCCCA"
### Response N

### Prompt Same read-out for "CCGGCGCA" ?
### Response Y

### Prompt For "CTGCGGGA" then?
### Response N

### Prompt What do you get for "GCTACAGA" ?
### Response N

### Prompt Queued: "AAACGGAA"
### Response Y

### Prompt Thanks! And "GGCATACC" ?
### Response N

### Prompt What do you have for "GACTTTCA" ?
### Response N

### Prompt Do the same for "AGAACAAG" please
### Response Y

### Prompt Could you do the same for "TATCTAAA" , please?
### Response Y

### Prompt And the next one, "CACCAAAG" ?
### Response Y

### Prompt Same read-out for "AAATGAGC" ?
### Response Y

### Prompt Do the same for "CCGAGCAG" please
### Response Y

### Prompt Also check "GGCATGAC"
### Response N

### Prompt Proceed to "CTACGCAA"
### Response N

### Prompt // same read-out, input: "AGACCCCG"
### Response Y

### Prompt Please do the same for "CTACATAG" as well.
### Response Y

### Prompt Now this one: "AAATTGAT"
### Response Y

### Prompt Request: "AGGTCGAA"
### Response N

### Prompt Moving on to the next sequence: "ACAACGGA"
### Response Y

### Prompt Subsequent entry: "CAGTATAC"
### Response N

### Prompt Another sequence to check: "AAACGGTA"
### Response Y

### Prompt Next entry: "ACGAACAA"
### Response Y

### Prompt Also, "TCGGATAA" please.
### Response Y

### Prompt Again, but for "CGAACCGC"
### Response Y

### Prompt Proceed to "ACAGTAAG"
### Response N

### Prompt Here is the next sequence: "AATTACCT"
### Response Y

### Prompt Same thing, different sequence: "AGGGGCTC"
### Response N

### Prompt Try this sequence next: "GAGCCCCA"
### Response N

### Prompt Same question for "CTAACGGA" please.
### Response Y

### Prompt Next sequence up: "ACCGCGGG"
### Response Y

### Prompt Quick one: "GCGGATAA"
### Response Y

### Prompt Same question for "ACCGCGGC" please.
### Response Y

### Prompt For "AATCTAAT" then?
### Response Y

### Prompt Next record, please: "GAGTGGCC"
### Response N

### Prompt Another sequence to check: "ACGGCGCG"
### Response Y

### Prompt Try the sequence "CCGGATAC"
### Response Y

### Prompt Cool, now "CCGGCGCG"
### Response Y

### Prompt Another: "AGGACAAG"
### Response N

### Prompt Then this sequence: "AGGCCTAA"
### Response Y

### Prompt # repeat for "ATGGCCCC"
### Response N

### Prompt Moving on to "AATGCTCG"
### Response N

### Prompt Follow-up item: "CCGTCCAA"
### Response N

### Prompt Then what about the sequence "CCGCAAAC" ?
### Response Y

### Prompt Then "AATCGGAA" ?
### Response Y

### Prompt Entry "GCTGAACC" please
### Response Y

### Prompt Same again, this time with "CCCCAGGG"
### Response N

### Prompt Also check "AATTGACA"
### Response Y

### Prompt Entry "CTCTTTCC" please
### Response N

### Prompt Likewise for "ATGAACAG" ?
### Response Y

### Prompt Param item: "AGAACAAA"
### Response Y

### Prompt What about this sequence? "TTAGGCAA"
### Response N

### Prompt Let us now turn to "AAGTGATA"
### Response N

### Prompt What do we get for "GTAACGGA" ?
### Response Y

### Prompt Next sequence up: "CCGAACAA"
### Response Y

### Prompt And then "ATAACAAG" , what is it?
### Response Y

### Prompt Moving on to "CCGGCGCC"
### Response Y

### Prompt Next sequence up: "ACCACGGA"
### Response Y

### Prompt # iterate: "CGAACCGA"
### Response Y

### Prompt # repeat for "CGGACCAC"
### Response Y

### Prompt Queued: "CGGACCAG"
### Response Y

### Prompt Continue with "CAACGGAG"
### Response Y

### Prompt Entry to check: "AGGAACTA"
### Response N

### Prompt And "AAACGGAT" ?
### Response Y

### Prompt Please give the result for "CGGAACTA" too.
### Response Y

### Prompt Proceed to "GGGACCGA"
### Response Y

### Prompt Try this sequence next: "CTCACAAG"
### Response N

### Prompt Again, but for "ACTTGCCA"
### Response N

### Prompt Then "ATAACAAA" ?
### Response Y

### Prompt Also "CGGACCGA" ?
### Response Y

### Prompt Same thing, different sequence: "ATAGAATC"
### Response Y

### Prompt Do the same for "AGACCCAA" please
### Response N

### Prompt // repeat for "GGGAACAC" and report
### Response Y

### Prompt Same for "CGGACCAA"
### Response Y

### Prompt Now try "GGCTTAAC" .
### Response N

### Prompt Now consider "ACCGCGGT" .
### Response Y

### Prompt Cool, now "ACAACGGG"
### Response N

### Prompt Same lookup for "GTTGGAGA" , please.
### Response Y

### Prompt Try "GCGGCGCC" next.
### Response Y

### Prompt What would you report for "AAACCTGG" ?
### Response N
